# Tested on: RARa:RXR (NR concentration 270 nM, RXRa partner concentration 90 nM)
# Measurement notes: PBM binding z-score (relative to random genomic background probes); higher = stronger binding; sequences stand for … in GC…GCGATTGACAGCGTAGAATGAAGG
Here, each record is paired with measured PBM binding z-score data.

Monomer sequence: TTATATAGGTAAAGGTGAAAGTCGAACGATATGA
System name: RARa:RXR (NR concentration 270 nM, RXRa partner concentration 90 nM)
PBM binding z-score: 1.74
//
Monomer sequence: AGTCAAAGTTCGGGACGAGGTAACGTAAAGCACG
System name: RARa:RXR (NR concentration 270 nM, RXRa partner concentration 90 nM)
PBM binding z-score: 0.869
//
Monomer sequence: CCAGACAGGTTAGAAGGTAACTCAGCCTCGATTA
System name: RARa:RXR (NR concentration 270 nM, RXRa partner concentration 90 nM)
PBM binding z-score: 0.828
//
Monomer sequence: CGTACTGGGCCAAAAAGGTCATTGATGCCGATAA
System name: RARa:RXR (NR concentration 270 nM, RXRa partner concentration 90 nM)
PBM binding z-score: 4.94
//
Monomer sequence: CCTCACGGGTCACGAGGTTATAGCACGACGAGCG
System name: RARa:RXR (NR concentration 270 nM, RXRa partner concentration 90 nM)
PBM binding z-score: 5.63
//
Monomer sequence: TGAATGAGGTTATAAGATCTGGGAACGTTGCAAA
System name: RARa:RXR (NR concentration 270 nM, RXRa partner concentration 90 nM)
PBM binding z-score: 1.12
//
Monomer sequence: CCAGACAGGTGAAAGATAACTCAGTCTGGTACGC
System name: RARa:RXR (NR concentration 270 nM, RXRa partner concentration 90 nM)
PBM binding z-score: 0.381
//
Monomer sequence: TCATATAGGTAAATGCTAGGTCAAAGTCCGATCT
System name: RARa:RXR (NR concentration 270 nM, RXRa partner concentration 90 nM)
PBM binding z-score: 2.7
//
Monomer sequence: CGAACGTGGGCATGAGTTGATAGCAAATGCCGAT
System name: RARa:RXR (NR concentration 270 nM, RXRa partner concentration 90 nM)
PBM binding z-score: -1.12
//
Monomer sequence: CCTACTGGGCCACAAAGGTCATTGATGCCGATAA
System name: RARa:RXR (NR concentration 270 nM, RXRa partner concentration 90 nM)
PBM binding z-score: 5.76
//
Monomer sequence: GCTATTAGTTGAAAGGGCAACTGAATGATTCTCG
System name: RARa:RXR (NR concentration 270 nM, RXRa partner concentration 90 nM)
PBM binding z-score: 1.68
//
Monomer sequence: TTAGCAAGGTGAAGGTCGTTGATCCCTCTGTAGA
System name: RARa:RXR (NR concentration 270 nM, RXRa partner concentration 90 nM)
PBM binding z-score: 1.51
//
Monomer sequence: TCTGCTCGGTCAACGATGGTCAGCTAATCTGCTA
System name: RARa:RXR (NR concentration 270 nM, RXRa partner concentration 90 nM)
PBM binding z-score: -0.0627
//
Monomer sequence: ACAGACAGTTGATGAAGGTAACTCAGGCTATCAT
System name: RARa:RXR (NR concentration 270 nM, RXRa partner concentration 90 nM)
PBM binding z-score: 0.287
//
Monomer sequence: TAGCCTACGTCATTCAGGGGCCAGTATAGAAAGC
System name: RARa:RXR (NR concentration 270 nM, RXRa partner concentration 90 nM)
PBM binding z-score: -0.258
//
Monomer sequence: CAGCCTAGGTCAGGGGCAGTATAGGAGGAACGTT
System name: RARa:RXR (NR concentration 270 nM, RXRa partner concentration 90 nM)
PBM binding z-score: 1.33
//
Monomer sequence: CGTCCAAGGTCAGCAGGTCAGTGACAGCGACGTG
System name: RARa:RXR (NR concentration 270 nM, RXRa partner concentration 90 nM)
PBM binding z-score: 5.22
//
Monomer sequence: TCTATTAGTTGAAGGGCTACCGACGAGTCCGTTT
System name: RARa:RXR (NR concentration 270 nM, RXRa partner concentration 90 nM)
PBM binding z-score: 0.611
//
Monomer sequence: TATACAGGGTCAAAAGCCAGAGTACGAATGTCGA
System name: RARa:RXR (NR concentration 270 nM, RXRa partner concentration 90 nM)
PBM binding z-score: 4.49
//
Monomer sequence: GGAACGCGGGCAAAGTTGATAGCATCTGTCGACG
System name: RARa:RXR (NR concentration 270 nM, RXRa partner concentration 90 nM)
PBM binding z-score: 0.0758
//
Monomer sequence: ATAAGTAGGTTACATCCGGGTCATTCAGGCTATG
System name: RARa:RXR (NR concentration 270 nM, RXRa partner concentration 90 nM)
PBM binding z-score: 3.58
//
Monomer sequence: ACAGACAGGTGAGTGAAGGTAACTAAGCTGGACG
System name: RARa:RXR (NR concentration 270 nM, RXRa partner concentration 90 nM)
PBM binding z-score: 0.0664
//
Monomer sequence: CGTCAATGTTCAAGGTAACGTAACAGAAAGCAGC
System name: RARa:RXR (NR concentration 270 nM, RXRa partner concentration 90 nM)
PBM binding z-score: -0.00308
//
Monomer sequence: TCTGGCAGGCCAGAGGGTCACTCAAGAGGTACGG
System name: RARa:RXR (NR concentration 270 nM, RXRa partner concentration 90 nM)
PBM binding z-score: 2
//
Monomer sequence: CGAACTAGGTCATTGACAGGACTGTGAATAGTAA
System name: RARa:RXR (NR concentration 270 nM, RXRa partner concentration 90 nM)
PBM binding z-score: 1.81
//
Monomer sequence: GGAACGAGGGCAAGGTGATAGCAGAGTTTGATGG
System name: RARa:RXR (NR concentration 270 nM, RXRa partner concentration 90 nM)
PBM binding z-score: 0.793
//
Monomer sequence: CAAACCAGGTCAAGGTCAAAGTCGGTTTGTGCCA
System name: RARa:RXR (NR concentration 270 nM, RXRa partner concentration 90 nM)
PBM binding z-score: 6.02
//
Monomer sequence: ATCGAAAGGTCGAGGTGCGTATAGAGAAAGGGAA
System name: RARa:RXR (NR concentration 270 nM, RXRa partner concentration 90 nM)
PBM binding z-score: 3.2
//
Monomer sequence: TCATATAGGTAATACAGGTGAAAGTAGGCATCTA
System name: RARa:RXR (NR concentration 270 nM, RXRa partner concentration 90 nM)
PBM binding z-score: 1.07
//
Monomer sequence: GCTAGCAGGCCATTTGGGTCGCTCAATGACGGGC
System name: RARa:RXR (NR concentration 270 nM, RXRa partner concentration 90 nM)
PBM binding z-score: -0.542
//
Monomer sequence: TTACCATGGTGAAGGTCGTTGATCCCTCTGTAGA
System name: RARa:RXR (NR concentration 270 nM, RXRa partner concentration 90 nM)
PBM binding z-score: 0.942
//
Monomer sequence: TAACCAAGGTGAGCTGAGGTCGTTGATCCAACTC
System name: RARa:RXR (NR concentration 270 nM, RXRa partner concentration 90 nM)
PBM binding z-score: 1.74
//
Monomer sequence: CCTAGTCGGTCAGGAGGTCACACACCGGATATGA
System name: RARa:RXR (NR concentration 270 nM, RXRa partner concentration 90 nM)
PBM binding z-score: 5.23
//
Monomer sequence: ATCGAAAGGTCGAAGTGAGTATAGAGAAAGGGAA
System name: RARa:RXR (NR concentration 270 nM, RXRa partner concentration 90 nM)
PBM binding z-score: 2.76
//
Monomer sequence: ACAGATAGGTGAGTGAAGGTAACTCAGCTGGACG
System name: RARa:RXR (NR concentration 270 nM, RXRa partner concentration 90 nM)
PBM binding z-score: 0.0919
//
Monomer sequence: TAGCCTAGGTCAGATCAGGCCAGTATACGCTATA
System name: RARa:RXR (NR concentration 270 nM, RXRa partner concentration 90 nM)
PBM binding z-score: 1.21
//
Monomer sequence: TTACCAAGTTGAGCTGAGGTCGTTGATCCAACTC
System name: RARa:RXR (NR concentration 270 nM, RXRa partner concentration 90 nM)
PBM binding z-score: 1.76
//
Monomer sequence: ACTCGGAGGACAAAGGCCAGAGCTACGCCAGTGA
System name: RARa:RXR (NR concentration 270 nM, RXRa partner concentration 90 nM)
PBM binding z-score: -0.794
//
Monomer sequence: ACATGTAGGTTACATCCGGGTCATTCAGGCTATG
System name: RARa:RXR (NR concentration 270 nM, RXRa partner concentration 90 nM)
PBM binding z-score: 3.98
//
Monomer sequence: ATCTCTATGTAAAGTTCAGTGAAAGATCGATAGA
System name: RARa:RXR (NR concentration 270 nM, RXRa partner concentration 90 nM)
PBM binding z-score: 1.18
//
Monomer sequence: TCTTGTAGATCAGCCGGTTAAGAAAGCTGGCCAA
System name: RARa:RXR (NR concentration 270 nM, RXRa partner concentration 90 nM)
PBM binding z-score: 0.0162
//
Monomer sequence: GCACGGAGGACAAGGTCAGAGCTTTGTCCGTAGA
System name: RARa:RXR (NR concentration 270 nM, RXRa partner concentration 90 nM)
PBM binding z-score: 2.03
//
Monomer sequence: GCTAGCAGGCCATTAGGGTCACTCAATGACGGGC
System name: RARa:RXR (NR concentration 270 nM, RXRa partner concentration 90 nM)
PBM binding z-score: 2.85
//
Monomer sequence: TCTATTTGGTCACGGAGGTCACACACGACGGGTA
System name: RARa:RXR (NR concentration 270 nM, RXRa partner concentration 90 nM)
PBM binding z-score: 4.88
//
Monomer sequence: CGTCCAAAGTCAAGGTCAGTGAAAGAGACTCGAA
System name: RARa:RXR (NR concentration 270 nM, RXRa partner concentration 90 nM)
PBM binding z-score: 2.47
//
Monomer sequence: TAGCCTAGGTCATGCGGGCCATTATAGTGTCGGC
System name: RARa:RXR (NR concentration 270 nM, RXRa partner concentration 90 nM)
PBM binding z-score: 2.7
//
Monomer sequence: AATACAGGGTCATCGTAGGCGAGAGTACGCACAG
System name: RARa:RXR (NR concentration 270 nM, RXRa partner concentration 90 nM)
PBM binding z-score: 5.1
//
Monomer sequence: TTACGAAGGTGAAGGTCGTTGATCCCTCTGTAGA
System name: RARa:RXR (NR concentration 270 nM, RXRa partner concentration 90 nM)
PBM binding z-score: 1.68
//
Monomer sequence: CAAACTAGGTCAAGAGGTCACAGTCCGCTTCCCG
System name: RARa:RXR (NR concentration 270 nM, RXRa partner concentration 90 nM)
PBM binding z-score: 7.64
//
Monomer sequence: GCAGACAGGTGAAACCCAGGTAACTCAGGGTGGC
System name: RARa:RXR (NR concentration 270 nM, RXRa partner concentration 90 nM)
PBM binding z-score: 0.261
//
Monomer sequence: CCAGACCGGTGAGAAGGTAACTCAGCCTCGATTA
System name: RARa:RXR (NR concentration 270 nM, RXRa partner concentration 90 nM)
PBM binding z-score: -0.155
